Source of measurements: patent US7812031B2

Recorded log10 of IC50 values for a group of compounds are listed next.
System: human recombinant orexin-2 (hr-OX-2) receptor (Homo sapiens, UniProt O43614)
Sequence (O43614 whole entry): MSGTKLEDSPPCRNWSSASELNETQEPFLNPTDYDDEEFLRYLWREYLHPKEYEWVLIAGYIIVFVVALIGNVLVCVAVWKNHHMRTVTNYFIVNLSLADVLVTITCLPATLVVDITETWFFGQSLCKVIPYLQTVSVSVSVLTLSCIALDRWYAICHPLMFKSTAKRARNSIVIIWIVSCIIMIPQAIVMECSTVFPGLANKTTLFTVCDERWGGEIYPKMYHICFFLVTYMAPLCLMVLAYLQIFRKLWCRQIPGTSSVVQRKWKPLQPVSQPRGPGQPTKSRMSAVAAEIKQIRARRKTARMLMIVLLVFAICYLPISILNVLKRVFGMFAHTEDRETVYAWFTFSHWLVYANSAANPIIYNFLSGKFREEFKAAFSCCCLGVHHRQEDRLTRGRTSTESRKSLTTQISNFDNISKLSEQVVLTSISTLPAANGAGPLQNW
Protocol: hr-125I-orexin-A radioligand competition binding, orexin-2 receptor
Experimental context: displacement of 125I-orexin-A, CHO-hr-OX-2 plasmamembranes, 25° C., 60 minutes; read-out: Orex-2 IC50
Scale: decimal log of IC50, IC50 in µM.

Worked cases, answers included:
1. CC(C(O)c1ccccc1)N(C)C(=O)c1cnc(NCc2ccccn2)nc1-c1ccccc1 (stereo not drawn)    0.73
2. COc1ccccc1C(=O)Nc1cccc(C(O)CN(C)C(=O)c2cnc(N(C)C)nc2-c2ccccc2)c1 (stereo not drawn)    -0.49

Q) Quick one: log10 of IC50 of CN(CC(O)c1cccc(OCc2ccccc2)c1)C(=O)c1cnc(N(C)C)nc1-c1ccccc1 (stereo not drawn) ?
A) 0.56

Q) Quick one: log10 of IC50 of CN(CC(O)c1cccc(OC(=O)C(C)(C)C)c1)C(=O)c1cnc(N(C)C)nc1-c1ccccc1Cl (stereo not drawn) ?
A) 0.46

Q) Quick one: log10 of IC50 of CN(Cc1ccccc1)c1ncc(C(=O)N2CCCCC2C(O)c2ccccc2)c(-c2ccccc2)n1 (racemic) ?
A) 0.83

Q) Quick one: log10 of IC50 of Cc1ccccc1-c1nc(N(C)Cc2ccccc2)ncc1C(=O)N(C)CC(O)c1cccc(O)c1 (stereo not drawn) ?
A) 0.76

###

System: human recombinant orexin-1 (hr-OX-1) receptor (Homo sapiens, UniProt O43613)
Sequence (O43613 whole entry): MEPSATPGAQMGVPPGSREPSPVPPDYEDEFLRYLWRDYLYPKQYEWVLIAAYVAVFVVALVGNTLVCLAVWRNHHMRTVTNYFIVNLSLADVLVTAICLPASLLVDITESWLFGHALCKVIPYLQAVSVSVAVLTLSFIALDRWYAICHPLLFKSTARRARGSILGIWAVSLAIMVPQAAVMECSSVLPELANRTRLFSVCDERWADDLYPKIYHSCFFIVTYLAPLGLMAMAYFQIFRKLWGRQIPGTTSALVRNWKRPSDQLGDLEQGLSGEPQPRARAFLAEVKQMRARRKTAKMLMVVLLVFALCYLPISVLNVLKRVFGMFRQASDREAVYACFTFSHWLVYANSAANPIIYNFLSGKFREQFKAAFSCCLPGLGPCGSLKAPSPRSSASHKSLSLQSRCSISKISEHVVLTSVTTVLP
Protocol: hr-125I-orexin-A radioligand competition binding, orexin-1 receptor
Experimental context: displacement of 125I-orexin-A, CHO-hr-OX-1 plasmamembranes, 25° C., 60 minutes; read-out: Orex-1 IC50
Recorded pIC50 values for a group of compounds are listed next.
Just so you know, pIC50 here is -log10 of the concentration in molar units; reply with that number alone.

Worked cases, answers included:
1) CN(Cc1ccccc1)c1ncc(C(=O)N2CCCCC2C(O)c2ccccc2)c(-c2ccccc2)n1 (racemic)    7.96
2) CC(C(O)c1ccccc1)N(C)C(=O)c1cnc(NCc2ccccn2)nc1-c1ccccc1 (stereo not drawn)    7.92
3) CN(CC(O)c1cccc(OCc2ccccc2)c1)C(=O)c1cnc(N(C)C)nc1-c1ccccc1 (stereo not drawn)    7.52
4) CN(CC(O)c1cccc(OC(=O)C(C)(C)C)c1)C(=O)c1cnc(N(C)C)nc1-c1ccccc1Cl (stereo not drawn)    7.52
5) COc1ccccc1C(=O)Nc1cccc(C(O)CN(C)C(=O)c2cnc(N(C)C)nc2-c2ccccc2)c1 (stereo not drawn)    7.82

From here, focus on the item given below.
Q) Quick one: pIC50 of Cc1ccccc1-c1nc(N(C)Cc2ccccc2)ncc1C(=O)N(C)CC(O)c1cccc(O)c1 (stereo not drawn) ?
A) 7.66
